Assay: Human HepG2 cell viability assay in 384 well format
Assay type: toxicity, cell-based
Design: dose 125 nL, time 70.5 hour; concentration not given beside the values
Conditions: HepG2 cells, read-out: Inhibition
metric: cytotoxicity at 70.5 h (%)
// return numeric value only (unit: %, not printed)

# input Fill in the blank: the reported cytotoxicity at 70.5 h of O=C(NC[C@H]1CC[C@H](c2ccnc3ncnn32)CC1)c1ccccn1 is ____.
# output -6.58

# input Fill in the blank: the reported cytotoxicity at 70.5 h of O=S(=O)(NC[C@H]1C[C@@H]2CCN1C[C@@H]2CN1CCCCC1)c1ccccc1 is ____.
# output -6.11

# input Fill in the blank: the reported cytotoxicity at 70.5 h of CC(=O)C(Cc1ccccc1)NC(=O)CSc1nncn1C (stereo unspecified) is ____.
# output -5.49

# input Fill in the blank: the reported cytotoxicity at 70.5 h of CC(C)c1ncc(CNC2(c3ccc(Cl)cc3)CC2)cn1 is ____.
# output -1.4

# input Fill in the blank: the reported cytotoxicity at 70.5 h of CCS(=O)(=O)N1C[C@H]2CC[C@](O)(c3ccc(C)cc3)[C@H]2C1 is ____.
# output 2.5

# input Fill in the blank: the reported cytotoxicity at 70.5 h of Cc1nc(C)n(CC2CCCN(c3ncnc4ccsc34)C2)n1 (stereo unspecified) is ____.
# output 26.2

# input Fill in the blank: the reported cytotoxicity at 70.5 h of N#Cc1cccc(CNCCC(=O)N2CCc3sccc3C2)c1 is ____.
# output -3.34

# input Fill in the blank: the reported cytotoxicity at 70.5 h of CN1CCCCC1c1cncc(Cl)n1 (stereo unspecified) is ____.
# output -0.934

# input Fill in the blank: the reported cytotoxicity at 70.5 h of CCOCCN1CCO[C@H]2[C@H](OCc3ccccn3)CC[C@@H]21 is ____.
# output -11

# input Fill in the blank: the reported cytotoxicity at 70.5 h of CNS(=O)(=O)Cc1ccc(CNC(=O)c2ccc(C)[nH]c2=O)cc1 is ____.
# output -9.88

# input Fill in the blank: the reported cytotoxicity at 70.5 h of CN1CCCCC1c1ncc2c(n1)CCN(Cc1ccccc1Cl)C2 (stereo unspecified) is ____.
# output -7.2

###

Please provide measured cytotoxicity at 70.5 h for the entries that follow.
Test: Human HepG2 cell viability assay in 384 well format
Assay type: toxicity, cell-based
Parameters: dose 125 nL, time 70.5 hour; concentration not given beside the values
Settings: HepG2 cells, read-out: Inhibition
// return numeric value only (unit: %, not printed)

# input Fill in the blank: the reported cytotoxicity at 70.5 h of O=C(c1nc2c(s1)CCCN2C(=O)C1CC1)N1CCOCC1 is ____.
# output -6.48

# input Fill in the blank: the reported cytotoxicity at 70.5 h of CC(=O)N1CCN(c2ccccc2CNc2cc(F)cc(F)c2)CC1 is ____.
# output 13.8

# input Fill in the blank: the reported cytotoxicity at 70.5 h of COCCN1C[C@H]2[C@@H](C1)N(Cc1cnn(C)c1)CC[C@H]2OC is ____.
# output -11.3

# input Fill in the blank: the reported cytotoxicity at 70.5 h of CC(C)CCN1CCc2[nH]nc(C(=O)N3CC=CC3)c2C1 is ____.
# output -6.59

# input Fill in the blank: the reported cytotoxicity at 70.5 h of Cc1cc(CN2CCN(C(=O)NC(C)c3cccs3)CC2)on1 (centres undefined) is ____.
# output -5.41

# input Fill in the blank: the reported cytotoxicity at 70.5 h of CC(C)c1cc(C(=O)N2CCN(CC3CC3)[C@@H]3CS(=O)(=O)C[C@@H]32)on1 is ____.
# output -0.581

# input Fill in the blank: the reported cytotoxicity at 70.5 h of CN(Cc1ccncc1)C1COC2(CCN(Cc3ccco3)CC2)C1 (centres undefined) is ____.
# output 9.94

# input Fill in the blank: the reported cytotoxicity at 70.5 h of CCOCC1CN(C(=O)c2cnoc2C)Cc2cn(CC3CC3)nc21 (centres undefined) is ____.
# output -8.9

# input Fill in the blank: the reported cytotoxicity at 70.5 h of N#Cc1cccc(SCCS(N)(=O)=O)c1 is ____.
# output -6.9

# input Fill in the blank: the reported cytotoxicity at 70.5 h of CCC(C)NC(=O)c1cc(S(N)(=O)=O)c(Br)s1 (centres undefined) is ____.
# output -6.88

# input Fill in the blank: the reported cytotoxicity at 70.5 h of CC1CCCCN1C(=O)c1ccc(=O)[nH]n1 (centres undefined) is ____.
# output -5.98

# input Fill in the blank: the reported cytotoxicity at 70.5 h of COCCN(CCc1ccccc1)Cc1nc2c(cnn2C)c(=O)[nH]1 is ____.
# output -3.4

# input Fill in the blank: the reported cytotoxicity at 70.5 h of CCOc1cc(C(=O)N2CCCC(n3nc(C)nc3C)C2)ccn1 (centres undefined) is ____.
# output -3.74

# input Fill in the blank: the reported cytotoxicity at 70.5 h of c1ccc(Cc2nnc(CN3CCCCC3Cn3cncn3)o2)cc1 (centres undefined) is ____.
# output 0.659

# input Fill in the blank: the reported cytotoxicity at 70.5 h of Cn1cc(N2CCC3(CCN(C(=O)c4cccn4C)C3)C2=O)cn1 (centres undefined) is ____.
# output -6.34

# input Fill in the blank: the reported cytotoxicity at 70.5 h of CC(C)Oc1cc(N2CCC(N3CCC(O)CC3)CC2)nc(N)n1 is ____.
# output -7.04

# input Fill in the blank: the reported cytotoxicity at 70.5 h of CN1CCNC(=O)C12CCN(Cc1ccco1)CC2 is ____.
# output -8.79

# input Fill in the blank: the reported cytotoxicity at 70.5 h of CCc1ccc(CN2CCc3ncnc(-c4cccnc4)c3CC2)o1 is ____.
# output -6.08

# input Fill in the blank: the reported cytotoxicity at 70.5 h of COc1ccc(CNC(=O)N2CCCC(Nc3ccccc3)C2)cn1 (centres undefined) is ____.
# output -7.17

# input Fill in the blank: the reported cytotoxicity at 70.5 h of Fc1ccc(CC2CCN(Cc3cscn3)CC2)cc1 is ____.
# output -14.2

# input Fill in the blank: the reported cytotoxicity at 70.5 h of CC(C)(C)N1CC(C(=O)N2CCN(CCn3cncn3)CC2)CC1=O (centres undefined) is ____.
# output -3.91

# input Fill in the blank: the reported cytotoxicity at 70.5 h of CCc1cccc(NC(=O)CCC(=O)N(C)Cc2nc(C)c[nH]2)c1 is ____.
# output 2.2

# input Fill in the blank: the reported cytotoxicity at 70.5 h of CCOCC(=O)Nc1nccn1Cc1ccccc1Cl is ____.
# output 13.6

# input Fill in the blank: the reported cytotoxicity at 70.5 h of CNC(=O)COc1ccc(CNc2c(Cl)cccc2C#N)cc1 is ____.
# output -2.72
